- Test system: HCT-116 colon
- test details: NCI tumour cell line growth inhibition, 48 h
reported endpoint: TGI (µM)
Write the answer as a number in µM, unit excluded.

## Task I would be grateful if you could share the reported TGI for COc1ccc(C2=C[C@]3(O)CCCN3C[C@@H]2c2ccc(OC)c(OC)c2)cc1 .
## Result 0.00112

## Task Here is the next compound: Cn1c(Cl)c(/C=C2/C(=O)Nc3ccccc32)c2ccccc21
## Result 12.3

## Task Here is the next compound: COc1cccc2c1C(=N)c1c(O)c3c(c(O)c1C2=O)C[C@@](O)(C(C)=O)C[C@@H]3O[C@H]1C[C@H](N)[C@H](O)[C@H](C)O1
## Result 6.6

## Task Here is the next compound: O=C(NC1=C(Cl)C(=O)c2ccccc2C1=O)c1ccccc1
## Result 32.2

## Task Here is the next compound: CN(C)Cc1cc(C(F)(F)F)ccc1C(O)(c1ccccc1)c1ccccc1
## Result 26.8

## Task Here is the next compound: Cc1ccc(C2(O)CSC(=NC34CC5CC(CC(C5)C3)C4)N2C(P(=O)(O)O)P(=O)(O)O)cc1 (stereo unspecified)
## Result 67.5

## Task Here is the next compound: CN(C)CCC(=O)N1C/C(=C\c2ccc(Cl)c(Cl)c2)C(=O)/C(=C/c2ccc(Cl)c(Cl)c2)C1
## Result 0.331

## Task Here is the next compound: CC(=O)OC1OC([C@H]2c3cccc(O)c3C(=O)c3c(O)cc(C)cc32)C(O)C(O)C1O (stereo partly specified)
## Result 1.18

## Task Here is the next compound: CCCCCCCCn1ccc2cc(NC(=O)Cn3cc(CN4CCCCCC4)nn3)ccc21
## Result 3.1
